Listing of recorded pIC50 by entry.
# assay_target: Human recombinant CETP (Homo sapiens, UniProt P11597)
# Sequence (P11597 18-493): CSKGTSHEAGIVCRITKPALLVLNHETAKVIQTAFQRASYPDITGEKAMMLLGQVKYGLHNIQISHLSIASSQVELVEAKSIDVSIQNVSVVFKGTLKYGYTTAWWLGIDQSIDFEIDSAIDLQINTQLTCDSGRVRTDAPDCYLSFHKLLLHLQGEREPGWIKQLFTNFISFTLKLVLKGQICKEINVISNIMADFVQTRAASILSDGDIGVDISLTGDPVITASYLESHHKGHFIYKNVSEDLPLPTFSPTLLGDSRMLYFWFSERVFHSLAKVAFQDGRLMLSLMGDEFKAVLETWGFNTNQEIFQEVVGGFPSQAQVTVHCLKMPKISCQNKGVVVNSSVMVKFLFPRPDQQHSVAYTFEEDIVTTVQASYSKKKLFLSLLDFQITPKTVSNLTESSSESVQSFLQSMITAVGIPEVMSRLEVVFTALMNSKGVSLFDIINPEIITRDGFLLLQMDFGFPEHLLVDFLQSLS
# assay_method_text: Assay of CETP Inhibition Using Purified Components (Reconstituted Buffer Assay)
# condition_set: transfer of [3H]CE from HDL to LDL; 2 hours at 37° C.
Quick note: pIC50 means taking -log10 of the concentration in moles per liter.

Study these solved cases before continuing.
[
  {
    "molecule": "OC(Cc1ccccc1)CN(Cc1cccc(OC(F)(F)F)c1)Cc1cccc(OC(F)(F)F)c1 (stereo not shown)",
    "pIC50": 4.85
  },
  {
    "molecule": "OCC(c1cccc(C(F)(F)F)c1)N(Cc1cccc(OC(F)(F)F)c1)c1cccc(Oc2ccccc2)c1 (stereo not shown)",
    "pIC50": 5.15
  }
]

The observed pIC50 for CCCC(O)CN(Cc1cccc(OC(F)(F)F)c1)c1cccc(Oc2ccccc2)c1 (stereo not shown) when tested with Human recombinant CETP (Homo sapiens, UniProt P11597) stands at 5.44
